test system: D. immitis L4 larvae; test: Dirofilaria immitis, L4 Stage (DiL4) In Vitro Assay; assay type: cell-based; conditions: larval stage selectivity, ratio of DiMf MED to DiL4 MED
Measure Name: DiMf/DiL4
Give bare numbers.

Field: example entries. Status: answers known.
Cc1ncsc1Cc1ccc(C[C@H]2OC(=O)[C@H](CC(C)C)N(C)C(=O)[C@@H](C)OC(=O)[C@H](CC(C)C)N(C)C(=O)[C@@H](Cc3ccc(Cc4scnc4C)cc3)OC(=O)[C@H](CC(C)C)N(C)C(=O)[C@@H](C)OC(=O)[C@H](CC(C)C)N(C)C2=O)cc1 : 5
CC(C)C[C@H]1C(=O)O[C@H](Cc2ccc(Cc3cocn3)cc2)C(=O)N(C)[C@@H](CC(C)C)C(=O)O[C@H](C)C(=O)N(C)[C@@H](CC(C)C)C(=O)O[C@H](Cc2ccc(Cc3cocn3)cc2)C(=O)N(C)[C@@H](CC(C)C)C(=O)O[C@H](C)C(=O)N1C : 1
CC(C)C[C@H]1C(=O)O[C@H](Cc2ccc([C@H](F)c3nccs3)cc2)C(=O)N(C)[C@@H](CC(C)C)C(=O)O[C@H](C)C(=O)N(C)[C@@H](CC(C)C)C(=O)O[C@H](Cc2ccc([C@@H](F)c3nccs3)cc2)C(=O)N(C)[C@@H](CC(C)C)C(=O)O[C@H](C)C(=O)N1C : 6

Consider the record given below.
Request: Report DiMf/DiL4 for `CC(C)C[C@H]1C(=O)O[C@H](Cc2ccc(Cc3cccnc3N(C)C)cc2)C(=O)N(C)[C@@H](CC(C)C)C(=O)O[C@H](C)C(=O)N(C)[C@@H](CC(C)C)C(=O)O[C@H](Cc2ccc(Cc3cccnc3N(C)C)cc2)C(=O)N(C)[C@@H](CC(C)C)C(=O)O[C@H](C)C(=O)N1C` please.
Response: 13.3

----------
Could you please report measured DiMf/DiL4 for the items listed next?
tested on: D. immitis L4 larvae; assay: Dirofilaria immitis, L4 Stage (DiL4) In Vitro Assay; assay type: cell-based; conditions: larval stage selectivity, ratio of DiMf MED to DiL4 MED
Give bare numbers.

COc1cncc(Cc2ccc(C[C@H]3OC(=O)[C@H](CC(C)C)N(C)C(=O)[C@@H](C)OC(=O)[C@H](CC(C)C)N(C)C(=O)[C@@H](Cc4ccc(Cc5cncc(OC)n5)cc4)OC(=O)[C@H](CC(C)C)N(C)C(=O)[C@@H](C)OC(=O)[C@H](CC(C)C)N(C)C3=O)cc2)n1 [Example 3-218] : 12.5

Request: Sample CC(C)C[C@H]1C(=O)O[C@H](Cc2ccc(Cc3ccc4cn[nH]c4c3)cc2)C(=O)N(C)[C@@H](CC(C)C)C(=O)O[C@H](C)C(=O)N(C)[C@@H](CC(C)C)C(=O)O[C@H](Cc2ccccc2)C(=O)N(C)[C@@H](CC(C)C)C(=O)O[C@H](C)C(=O)N1C [Example 4-18] — what was its DiMf/DiL4?
Response: 50

----------
test system: D. immitis L4 larvae; experiment: Dirofilaria immitis, L4 Stage (DiL4) In Vitro Assay; type: cell-based; conditions: larval stage selectivity, ratio of DiMf MED to DiL4 MED
Measure Name: DiMf/DiL4
Numbers only.

# count of solved cases: 2
COc1cnc(C(C)(F)c2ccc(C[C@H]3OC(=O)[C@H](CC(C)C)N(C)C(=O)[C@@H](C)OC(=O)[C@H](CC(C)C)N(C)C(=O)[C@@H](Cc4ccc(C(C)(F)c5cnc(OC)cn5)cc4)OC(=O)[C@H](CC(C)C)N(C)C(=O)[C@@H](C)OC(=O)[C@H](CC(C)C)N(C)C3=O)cc2)cn1 (stereo partly drawn) : 28.6
CC(C)C[C@H]1C(=O)O[C@H](Cc2ccc(Cc3nccs3)cc2)C(=O)N(C)[C@@H](CC(C)C)C(=O)O[C@H](C)C(=O)N(C)[C@@H](CC(C)C)C(=O)O[C@H](Cc2ccc(Cc3nccs3)cc2)C(=O)N(C)[C@@H](CC(C)C)C(=O)O[C@H](C)C(=O)N1C : 1

Now let's try a different one.
Request: Consider the compound shown here: COc1ccc(C(C)c2ccc(C[C@H]3OC(=O)[C@H](CC(C)C)N(C)C(=O)[C@@H](C)OC(=O)[C@H](CC(C)C)N(C)C(=O)[C@@H](Cc4ccc(C(C)c5ccc(OC)nc5)cc4)OC(=O)[C@H](CC(C)C)N(C)C(=O)[C@@H](C)OC(=O)[C@H](CC(C)C)N(C)C3=O)cc2)cn1 (stereo partly drawn) What is its recorded DiMf/DiL4?
Response: 50
